All values here come from PubChem BioAssay (NCI).

Give GI50 for every item shown.
# Tested on: IGROV1 ovarian
# MEASUREMENT DESCRIPTION: NCI tumour cell line growth inhibition, 384-well format

Sample answers from the record:
MOLECULE	GI50
Cn1cc(-c2ccc3nnc(Sc4ccc5ncccc5c4)n3n2)cn1	> 100 µM
C=CC(=O)Nc1cc(N2CCN(CC)CC2)ccc1Nc1cc(N(C)C(=O)Nc2c(Cl)c(OC)cc(OC)c2Cl)ncn1	1.86 µM
CCN(c1cc(-c2ccc(CN3CCOCC3)cc2)cc(C(=O)NCc2c(C)cc(C)[nH]c2=O)c1C)C1CCOCC1	> 91.5 µM

Please give the measured GI50 for this molecule: O=P1(S)OC[C@H]2O[C@@H]3[C@H](F)[C@@H]2OP(O)(=S)OC[C@H]2O[C@H]([C@H](F)[C@@H]2O1)n1cnc2c(ncnc21)NC/C=C/CNc1ncnc2c1ncn23 (some centres undefined) > 100 µM

###

Give TGI for every item shown.
# Tested on: PC-3 prostate
# MEASUREMENT DESCRIPTION: NCI tumour cell line growth inhibition, 384-well format

Sample answers from the record:
MOLECULE	TESTED SYSTEM	TGI
O=P1(S)OC[C@H]2O[C@@H]3[C@H](F)[C@@H]2OP(O)(=S)OC[C@H]2O[C@H]([C@H](F)[C@@H]2O1)n1cnc2c(ncnc21)NC/C=C/CNc1ncnc2c1ncn23 (stereo partly specified)	PC-3 prostate	> 100 µM
Cn1cc(-c2ccc3nnc(Sc4ccc5ncccc5c4)n3n2)cn1	PC-3 prostate	> 100 µM
Cc1nc2ccc(NC(=O)CCNC(=O)CCCc3ccc(CC(C(=O)O)C(=O)O)cc3)cc2s1	PC-3 prostate	> 100 µM
C=CC(=O)Nc1cc(N2CCN(CC)CC2)ccc1Nc1cc(N(C)C(=O)Nc2c(Cl)c(OC)cc(OC)c2Cl)ncn1	PC-3 prostate	3.27 µM
O=C1CCC(N2C(=O)c3ccccc3C2=O)C(=O)N1 (stereo unspecified)	PC-3 prostate	> 100 µM

Consider the record given below.
Please give the measured TGI for this molecule: CCN(c1cc(-c2ccc(CN3CCOCC3)cc2)cc(C(=O)NCc2c(C)cc(C)[nH]c2=O)c1C)C1CCOCC1 > 100 µM

###

Give TGI for every item shown.
# Tested on: HOP-92 NSCLC
# MEASUREMENT DESCRIPTION: NCI tumour cell line growth inhibition, 384-well format

I have 2 molecules here; please give me TGI for each one.
1. Cn1cc(-c2ccc3nnc(Sc4ccc5ncccc5c4)n3n2)cn1
2. Cc1nc2ccc(NC(=O)CCNC(=O)CCCc3ccc(CC(C(=O)O)C(=O)O)cc3)cc2s1

1: > 100 µM; 2: > 100 µM

I have 2 molecules here; please give me TGI for each one.
1. O=P1(S)OC[C@H]2O[C@@H]3[C@H](F)[C@@H]2OP(O)(=S)OC[C@H]2O[C@H]([C@H](F)[C@@H]2O1)n1cnc2c(ncnc21)NC/C=C/CNc1ncnc2c1ncn23 (some centres undefined)
2. C=CC(=O)Nc1cc(N2CCN(CC)CC2)ccc1Nc1cc(N(C)C(=O)Nc2c(Cl)c(OC)cc(OC)c2Cl)ncn1

> 100 µM
2.77 µM

###

# System: LOX IMVI melanoma
# MEASUREMENT DESCRIPTION: NCI tumour cell line growth inhibition, 384-well format
ENDPOINT NAME: TGI

MOLECULE	TGI
Cc1nc2ccc(NC(=O)CCNC(=O)CCCc3ccc(CC(C(=O)O)C(=O)O)cc3)cc2s1	> 100 µM
O=P1(S)OC[C@H]2O[C@@H]3[C@H](F)[C@@H]2OP(O)(=S)OC[C@H]2O[C@H]([C@H](F)[C@@H]2O1)n1cnc2c(ncnc21)NC/C=C/CNc1ncnc2c1ncn23 (some centres undefined)	> 100 µM
C=CC(=O)Nc1cc(N2CCN(CC)CC2)ccc1Nc1cc(N(C)C(=O)Nc2c(Cl)c(OC)cc(OC)c2Cl)ncn1	3.28 µM

Consider the record given below.
Please give the measured TGI for this molecule: O=C1CCC(N2C(=O)c3ccccc3C2=O)C(=O)N1 (centres undefined) > 100 µM
